molecular target: F508delCFTR (Homo sapiens, UniProt P13569, DEL508-508); construct: expressed in transfected cells; host or cells: CFBE41o- human lung-derived epithelial cells (CFBE4lo-F508delCFTR-HRP), doxycycline-inducible; assay: Cell Surface Expression-Horse Radish Peroxidase (CSE-HRP) Assay; type: cell-based; conditions: CSE-HRP; test compound without co-corrector; read-out: EC50 (without co-corrector)
Sequence (P13569 with tags, fused parts or gaps DEL508-508): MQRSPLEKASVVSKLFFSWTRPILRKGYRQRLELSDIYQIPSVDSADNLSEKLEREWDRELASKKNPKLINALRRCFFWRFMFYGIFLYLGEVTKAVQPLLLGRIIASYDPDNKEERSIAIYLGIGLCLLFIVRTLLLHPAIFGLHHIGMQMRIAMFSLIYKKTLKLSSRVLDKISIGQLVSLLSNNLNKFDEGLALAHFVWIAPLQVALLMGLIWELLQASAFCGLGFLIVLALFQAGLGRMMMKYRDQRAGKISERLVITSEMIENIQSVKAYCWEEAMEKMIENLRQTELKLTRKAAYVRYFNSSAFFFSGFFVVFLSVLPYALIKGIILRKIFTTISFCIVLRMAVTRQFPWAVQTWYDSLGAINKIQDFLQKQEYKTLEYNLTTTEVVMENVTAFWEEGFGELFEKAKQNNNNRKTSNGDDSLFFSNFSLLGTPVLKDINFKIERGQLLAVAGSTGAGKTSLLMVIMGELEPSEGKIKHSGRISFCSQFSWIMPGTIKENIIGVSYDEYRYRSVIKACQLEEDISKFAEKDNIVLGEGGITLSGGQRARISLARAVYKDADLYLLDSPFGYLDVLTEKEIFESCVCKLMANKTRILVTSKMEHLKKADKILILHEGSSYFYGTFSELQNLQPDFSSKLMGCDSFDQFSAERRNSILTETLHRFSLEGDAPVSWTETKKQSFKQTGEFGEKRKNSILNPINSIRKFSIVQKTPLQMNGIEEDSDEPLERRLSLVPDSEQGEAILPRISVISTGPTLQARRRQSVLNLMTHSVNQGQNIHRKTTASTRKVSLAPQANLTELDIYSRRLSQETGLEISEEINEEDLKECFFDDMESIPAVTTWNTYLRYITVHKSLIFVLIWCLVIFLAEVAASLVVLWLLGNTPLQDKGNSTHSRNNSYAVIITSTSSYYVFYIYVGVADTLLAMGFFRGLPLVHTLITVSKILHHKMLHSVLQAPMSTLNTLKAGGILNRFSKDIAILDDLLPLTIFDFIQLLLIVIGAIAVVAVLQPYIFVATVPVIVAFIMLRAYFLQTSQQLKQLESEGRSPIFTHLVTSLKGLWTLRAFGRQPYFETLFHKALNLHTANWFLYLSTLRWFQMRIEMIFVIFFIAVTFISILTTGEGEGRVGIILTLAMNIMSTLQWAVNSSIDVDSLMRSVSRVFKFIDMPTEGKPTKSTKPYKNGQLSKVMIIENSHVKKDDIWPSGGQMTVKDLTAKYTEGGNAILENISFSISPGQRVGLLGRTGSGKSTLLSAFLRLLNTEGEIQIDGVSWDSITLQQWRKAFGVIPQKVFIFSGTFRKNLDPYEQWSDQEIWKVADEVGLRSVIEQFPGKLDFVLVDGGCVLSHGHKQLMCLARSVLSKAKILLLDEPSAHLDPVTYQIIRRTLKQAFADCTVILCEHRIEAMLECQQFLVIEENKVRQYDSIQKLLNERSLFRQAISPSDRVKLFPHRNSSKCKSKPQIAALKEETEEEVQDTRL
Here, each record is paired with measured EC50 data.
parameter-measured: EC50

compound: CC(C)(C)[C@@H]1[C@@H](NCc2ccccc2OC(F)(F)F)[C@@H](c2ccccc2)N(C(=O)C2CCCCC2)[C@H]1C(=O)O (racemic) [II-76]
reading: 1000 to 10000 nM

compound: COc1ccc(C(C)(C)C)cc1CN[C@H]1[C@H](C(C)(C)C)[C@@H](C(=O)O)N(C(=O)Cc2cc(C)sc2C)[C@H]1c1ccccc1 [II-208]
reading: 1000 to 10000 nM

compound: COc1ccc(C(F)(F)F)cc1CN[C@H]1[C@H](C(C)(C)C)[C@@H](C(=O)O)N(S(=O)(=O)c2ccccc2)[C@H]1c1ccccc1 [II-155]
reading: 1000 to 10000 nM

compound: COc1ccc(C(C)(C)C)cc1CN[C@H]1[C@H](C(C)(C)C)[C@@H](C(=O)O)N(C(=O)C(OC)c2cccc(Cl)c2)[C@H]1c1ccccc1 (single isomer, unassigned) [II-270]
reading: < 1000 nM

compound: COc1ncc(C(F)(F)F)cc1CN[C@H]1[C@H](C(C)(C)C)[C@@H](C(=O)O)N(C(=O)[C@@H]2CCCO2)[C@H]1c1ccccc1Br [Example I-292]
reading: 1000 to 10000 nM

compound: COc1ccc(C(C)(C)C)cc1CN[C@H]1[C@H](C(C)(C)C)[C@@H](C(=O)O)N(C(=O)c2cccc(Cn3cncn3)c2)[C@H]1c1ccccc1 [II-225]
reading: 1000 to 10000 nM

compound: COc1ccc(C(F)(F)F)cc1CN[C@H]1[C@H](C(C)(C)C)[C@@H](C(=O)O)N(C(=O)C2Cc3ccccc3O2)[C@H]1c1ccccc1 (single isomer, unassigned) [II-265]
reading: 1000 to 10000 nM

compound: Cc1ccc(C(F)(F)F)cc1CN[C@@H]1[C@@H](C(C)(C)C)[C@H](C(=O)O)N(C(=O)C2CCCCC2)[C@@H]1c1ccccc1 (racemic) [II-72]
reading: < 1000 nM

compound: COc1ccc(C(C)(C)C)cc1CN[C@H]1[C@H](C(C)(C)C)[C@@H](C(=O)O)N(C(=O)c2coc3ccccc23)[C@H]1c1ccccc1 [II-185]
reading: < 1000 nM

compound: COc1ccc(C(C)(C)C)cc1CN[C@H]1[C@H](C(C)(C)C)[C@@H](C(=O)O)N(C(=O)Cc2cccnc2)[C@H]1c1ccccc1 [II-184]
reading: 1000 to 10000 nM

compound: COc1cc(C(F)(F)F)ccc1CN[C@@H]1[C@@H](C(C)(C)C)[C@H](C(=O)O)N(C(=O)C2CCCOC2)[C@@H]1c1ccccc1N(C)C (mixture of isomers) [II-22]
reading: 1000 to 10000 nM

compound: COc1nc2ccccc2cc1CN[C@H]1[C@H](C(C)(C)C)[C@@H](C(=O)O)N(C(=O)OC(C)C)[C@H]1c1ccccc1C(C)C [Example I-250]
reading: 1000 to 10000 nM

----------
molecular target: F508delCFTR (Homo sapiens, UniProt P13569, DEL508-508); construct: expressed in transfected cells; host or cells: CFBE41o- human lung-derived epithelial cells (CFBE4lo-F508delCFTR-HRP), doxycycline-inducible; test: Cell Surface Expression-Horse Radish Peroxidase (CSE-HRP) Assay; type: cell-based; details: CSE-HRP; with co-corrector (2 μM of 3-[(2R,4R)-4-({[1-(2,2-difluoro-1,3-benzodioxol-5-yl)cyclopropyl]carbonyl}amino)-7-methoxy-3,4-dihydro-2H-chromen-2-yl]benzoic acid); read-out: EC50 (with co-corrector)
parameter-measured: EC50

compound: COc1ccc(-c2ccccc2)cc1CN[C@H]1[C@H](C(C)(C)C)[C@@H](C(=O)O)N(C(=O)OC(C)C)[C@H]1c1ccccc1
parameter-measured: EC50
reading: < 1000 nM
//
compound: COc1ccc(C(C)(C)C)cc1CN[C@@H]1[C@@H](C(C)(C)C)[C@H](C(=O)O)N(C(=O)OC2CCC2)[C@@H]1c1ccccc1 (racemic)
parameter-measured: EC50
reading: 1000 to 10000 nM
//
compound: COc1cc(C)ccc1CN[C@H]1[C@H](C(C)(C)C)[C@@H](C(=O)O)N(C(=O)[C@@H]2CCCCO2)[C@H]1c1cccnc1OC
parameter-measured: EC50
reading: 1000 to 10000 nM
//
compound: COc1cc2c(cc1CN[C@H]1[C@H](C(C)(C)C)[C@@H](C(=O)O)N(C(=O)C3CCCCC3)[C@H]1c1ccccc1)CCCC2
parameter-measured: EC50
reading: < 1000 nM
//
compound: COc1ccc(C(C)(C)C)cc1CN[C@H]1[C@H](C(C)(C)C)[C@@H](C(=O)O)N(C(=O)Cc2cc(F)ccc2F)[C@H]1c1ccccc1
parameter-measured: EC50
reading: < 1000 nM
//
compound: COc1ccc(C(C)(C)C)cc1CN[C@H]1[C@H](C(C)(C)C)[C@@H](C(=O)O)N(C(=O)C(OC)c2cccc(Cl)c2)[C@H]1c1ccccc1 (single isomer, unassigned) [II-271]
parameter-measured: EC50
reading: < 1000 nM

----------
Entries and their Emax values follow.
target: F508delCFTR (Homo sapiens, UniProt P13569, DEL508-508); construct: expressed in transfected cells; host or cells: CFBE41o- human lung-derived epithelial cells (CFBE4lo-F508delCFTR-HRP), doxycycline-inducible; test: Cell Surface Expression-Horse Radish Peroxidase (CSE-HRP) Assay; assay type: cell-based; details: CSE-HRP; without co-corrector; maximum at any tested concentration, normalized to on-plate positive control; read-out: Maximum % activity (without co-corrector);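 for Maximum % activity (without co-corrector): percent of the 2 µM on-plate positive control corrector response above DMSO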
parameter-measured: Emax

molecule: COc1ccc(C(C)(C)C)cc1CN[C@H]1[C@H](C(C)(C)C)[C@@H](C(=O)O)N(C(=O)C2CCCC(C(F)(F)F)C2)[C@H]1c1ccccc1 (stereo partly drawn)
reading: > 200%
--
molecule: COc1ccc(C(F)(F)F)cc1CN[C@H]1[C@H](C(C)(C)C)[C@@H](C(=O)O)N(C(=O)C2COc3ccccc3O2)[C@H]1c1ccccc1 (stereo partly drawn)
reading: < 100%
--
molecule: COc1ccc(C(C)(C)C)cc1CN[C@H]1[C@H](C(C)(C)C)[C@@H](C(=O)O)N(C(=O)C(OC)c2cccc(Cl)c2)[C@H]1c1ccccc1 (single isomer, unassigned)
reading: > 200%
--
molecule: COc1ccc(Br)cc1CN[C@H]1[C@H](C(C)(C)C)[C@@H](C(=O)O)N(C(=O)C2CCCCC2)[C@H]1c1ccccc1F
reading: 100 to 200%
--
molecule: COc1cc(C(F)(F)F)ccc1CN[C@@H]1[C@@H](C(C)(C)C)[C@H](C(=O)O)N(C(=O)[C@@H]2CCCCO2)[C@@H]1c1ccccc1 [II-82]
reading: 100 to 200%
--
molecule: COc1ncc(C(C)(C)C)cc1CN[C@H]1[C@H](C(C)(C)C)[C@@H](C(=O)O)N(C(=O)Cc2c(F)cccc2F)[C@H]1c1ccccc1
reading: > 200%

----------
target: F508delCFTR (Homo sapiens, UniProt P13569, DEL508-508); construct: expressed in transfected cells; host or cells: CFBE41o- human lung-derived epithelial cells (CFBE4lo-F508delCFTR-HRP), doxycycline-inducible; test: Cell Surface Expression-Horse Radish Peroxidase (CSE-HRP) Assay; assay type: cell-based; settings: test compound without co-corrector; maximum at any tested concentration, normalized to on-plate positive control; read-out: Maximum % activity (without co-corrector);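 for Maximum % activity (without co-corrector): percent of the 2 µM on-plate positive control corrector response above DMSO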
parameter-measured: Emax

compound: COc1ccc(C(F)(F)F)cc1CN[C@H]1[C@H](C(C)(C)C)[C@@H](C(=O)O)N(C(=O)C2CCC(C)C2)[C@H]1c1ccccc1 (stereo partly drawn)
tested-target: F508delCFTR (Homo sapiens, UniProt P13569, DEL508-508)
reading: > 200%
//
compound: CC(C)(C)[C@H]1[C@H](NCc2ccc3c(c2)CCO3)[C@H](c2ccccc2)N(C(=O)C2CCCCC2)[C@@H]1C(=O)O
tested-target: F508delCFTR (Homo sapiens, UniProt P13569, DEL508-508)
reading: < 100%
//
compound: COc1ccc(C(C)(C)C)cc1CN[C@H]1[C@H](C(C)(C)C)[C@@H](C(=O)O)N(C(=O)Cc2ccc(F)cc2F)[C@H]1c1ccccc1
tested-target: F508delCFTR (Homo sapiens, UniProt P13569, DEL508-508)
reading: > 200%
//
compound: COc1ccc(C(F)(F)F)cc1CN[C@H]1[C@H](C(C)(C)C)[C@@H](C(=O)O)N(C(=O)C(Oc2ccc(Cl)cc2)C(C)C)[C@H]1c1ccccc1 (stereo partly drawn)
tested-target: F508delCFTR (Homo sapiens, UniProt P13569, DEL508-508)
reading: 100 to 200%
//
compound: Cc1ccc(CN[C@H]2[C@H](C(C)(C)C)[C@@H](C(=O)O)N(C(=O)C3CCCCC3)[C@H]2c2ccccc2)cc1C
tested-target: F508delCFTR (Homo sapiens, UniProt P13569, DEL508-508)
reading: < 100%
//
compound: COc1ncc(C2CCC2)cc1CN[C@H]1[C@H](C(C)(C)C)[C@@H](C(=O)O)N(C(=O)C2CCCCC2C)[C@H]1c1ccccc1 (stereo partly drawn)
tested-target: F508delCFTR (Homo sapiens, UniProt P13569, DEL508-508)
reading: 100 to 200%
